Molecular target: T1, APBA3_2, O96018
T1 sequence (O96018 480-570, limits assumed, looked up): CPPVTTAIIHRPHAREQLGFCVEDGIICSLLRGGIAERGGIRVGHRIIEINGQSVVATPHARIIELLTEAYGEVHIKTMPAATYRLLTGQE
Experiment: holdup assay
Design: key: below the threshold = too weak to quantify, mostly under pKd 3.1 to 4
Details: plain residues with an end cap or a label only (N-terminal biotin on a linker: ttds)
RECORDED_METRIC: pKd

Past entries and their recorded results:
PSRDRKETSI [RALBP1, Q15311] ... below the threshold
SGGKRKETLV [NET1, Q7Z628] ... below the threshold
SRSRRRETAL [HPV33-E6, P06427] ... 4.28
PPRQRSETQV [HPV82-E6, Q9IR59] ... below the threshold
SSIDLWETAL [SLC15A5, A6NIM6] ... below the threshold

Q: So what's the measured pKd for this one? SHSSKGETAV [FZD7, O75084]
A: below the threshold
